Reference source: paper PMC6028563

Ki, rat A1 AR (Rattus norvegicus, UniProt P25099), per-entry values.
MEASURED_ENDPOINT: Ki (nM)

[1] CCn1c(=O)c2c(nc3n2CCN(Cc2cccc(C(F)(F)F)c2)C3)n(C)c1=O [Compound 14e]
[2] CCn1c(=O)c2c(nc3n2CCN(Cc2cccc(Br)c2)C3)n(CC)c1=O [Compound 15d]
Prompt: Which entry has a larger number for Ki, 1 or 2 ? Provide the label of your selected option as the answer.
Completion: 1

---

TARGET_ENTITY: human A1 AR (Homo sapiens)
Construct: expressed in transfected cells; host or cells: CHO cells
Sequence (P30542 1-326): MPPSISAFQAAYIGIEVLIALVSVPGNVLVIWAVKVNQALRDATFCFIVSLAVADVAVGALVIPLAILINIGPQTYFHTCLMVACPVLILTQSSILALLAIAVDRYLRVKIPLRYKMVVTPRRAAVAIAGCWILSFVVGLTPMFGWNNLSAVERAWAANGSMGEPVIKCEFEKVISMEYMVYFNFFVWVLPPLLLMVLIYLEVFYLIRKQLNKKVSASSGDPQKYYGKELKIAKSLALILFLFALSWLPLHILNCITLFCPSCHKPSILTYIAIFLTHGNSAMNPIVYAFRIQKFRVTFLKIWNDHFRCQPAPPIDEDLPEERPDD
METHOD_DESCRIPTION: Radioligand binding assay at human A1 AR vs. [^3H]CCPA
MEASUREMENT_PARAMETERS: human (h); CHO cell membranes; n = 3
MEASURED_ENDPOINT: Ki (nM)

Look over these answered cases.
COMPOUND: CCCn1c(=O)c2c(nc3n2CCN(Cc2ccc(Cl)c(Cl)c2)C3)n(C)c1=O
RECORDED_NUMBER: 475

COMPOUND: CCn1c(=O)c2c(nc3n2CCN(Cc2cc(C(F)(F)F)ccc2F)C3)n(CC)c1=O [Compound 15j]
RECORDED_NUMBER: 39.4

COMPOUND: CCn1c(=O)c2c(nc3n2CCN(Cc2cccc(Br)c2)C3)n(CC)c1=O [Compound 15d]
RECORDED_NUMBER: 13.6

COMPOUND: CCn1c(=O)c2c(nc3n2CCN(Cc2cc(Br)ccc2F)C3)n(C)c1=O [Compound 14o]
RECORDED_NUMBER: 116

COMPOUND: C#CCn1c(=O)c2c(nc3n2CCN(Cc2ccccc2)C3)n(CC)c1=O [Compound 20e]
RECORDED_NUMBER: 180

COMPOUND: CCn1c(=O)c2c(nc3n2CCN(Cc2ccccc2F)C3)n(CC)c1=O [Compound 15a]
RECORDED_NUMBER: 156

[P] CCn1c(=O)c2c(nc3n2CCN(Cc2c(Cl)cccc2Cl)C3)n(C)c1=O [Compound 14k]
[Q] C#CCn1c(=O)c2c(nc3n2CCN(c2cccc(OC)c2)C3)n(CC)c1=O [Compound 20c]
Prompt: Kindly compare P with Q and tell me which has the lower Ki figure. Provide the label of your selected option as the answer.
Completion: P

[P] CCn1c(=O)c2c(nc3n2CCN(Cc2ccccc2Br)C3)n(C)c1=O [Compound 14a]
[Q] CCn1c(=O)c2c(nc3n2CCN(Cc2cc(Cl)ccc2Cl)C3)n(C)c1=O [Compound 14j]
Prompt: Kindly compare P with Q and tell me which has the lower Ki figure. Provide the label of your selected option as the answer.
Completion: P
(P: 41.7 nM, Q: 391 nM)
